Molecular target: Human full-length diacylglycerol:acylCoA acyltransferase 1 (DGAT-1) (Homo sapiens, UniProt O75907)
Construct: Human full-length diacylglycerol:acylCoA acyltransferase 1 (DGAT-1) was expressed in Sf9 insect cells; made in house; host or cells: Sf9 insect cells (baculovirus); crude membrane/microsome fraction
Sequence (O75907 1-488): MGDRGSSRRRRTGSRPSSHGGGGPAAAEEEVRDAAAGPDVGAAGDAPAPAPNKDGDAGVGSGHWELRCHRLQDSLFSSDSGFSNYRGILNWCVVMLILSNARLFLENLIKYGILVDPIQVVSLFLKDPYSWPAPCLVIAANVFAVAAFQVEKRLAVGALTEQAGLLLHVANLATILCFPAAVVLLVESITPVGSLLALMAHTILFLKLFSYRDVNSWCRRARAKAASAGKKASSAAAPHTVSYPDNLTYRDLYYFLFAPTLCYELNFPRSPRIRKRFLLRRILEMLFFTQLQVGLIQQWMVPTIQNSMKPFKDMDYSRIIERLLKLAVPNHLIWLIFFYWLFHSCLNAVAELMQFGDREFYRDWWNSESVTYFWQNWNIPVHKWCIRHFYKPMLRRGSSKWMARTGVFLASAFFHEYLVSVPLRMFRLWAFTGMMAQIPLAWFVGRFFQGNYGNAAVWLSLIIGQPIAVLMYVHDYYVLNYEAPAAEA
Assay: DGAT-1 Reduced Microsome Multidose Assay, G7829E Human IC50
Format: biochemical
Details: crude membrane fraction of Sf9 cells expressing human DGAT-1; [14C]decanoylCoA; terminated with 5 μl of 1.4% phosphoric acid instead of HCl; average where tested more than once
pIC50: −log10 of the molar value.
QUANTITY NAME: pIC50

Example results:
Name the reported pIC50 value associated with the compound `COc1nc(N)c2c(n1)CCN(c1ccc(C(=O)C(C)(C)C)cc1)C2=O`
6.72

Note, next up: COc1nc(N)c2c(n1)CCN(c1ccc(C(C)(C)c3ncon3)cc1)C2=O (single isomer, unassigned)
7.26

Note, next up: `COc1nc(N)c2c(n1)CCN(c1ccc(C(C)(C)c3nnn(C)n3)cc1)C2=O`
7.68

Note, next up: `COc1nc(N)c2c(n1)CCN(c1ccc(C(=O)OCC(C)(C)C)cc1)C2=O`
7.26

I. COc1nc(N)c2c(n1)CCN(c1ccc(CC(C)(C)O)cc1)C2=O
II. COc1nc(N)c2c(n1)CCN(c1ccc(C(C)(C)CNC(=O)OC(C)(C)C)cc1)C2=O
III. COc1nc(N)c2c(n1)CCN(c1cccc(C(C)(C)CO)c1)C2=O
IV. COc1nc(N)c2c(n1)CCN(c1ccc(C3(C(N)=O)CCCCC3)cc1)C2=O
Returns the items ordered by pIC50, from maximum to minimum. Please list the labels according to the requested order.
II, I, IV, III
(II: 7.71, I: 7.35, IV: 6.74, III: 6.08)

###

target: Human full-length diacylglycerol:acylCoA acyltransferase 1 (DGAT-1) (Homo sapiens, UniProt O75907); construct: Human full-length diacylglycerol:acylCoA acyltransferase 1 (DGAT-1) was expressed in Sf9 insect cells; made in house; host or cells: Sf9 insect cells (baculovirus); crude membrane/microsome fraction; experiment: DGAT-1 Reduced Microsome Multidose Assay, G7329F Human IC50; type: biochemical; details: crude membrane fraction of Sf9 cells expressing human DGAT-1; [14C]decanoylCoA; apparent IC50, average where tested more than once
QUANTITY NAME: IC50 (nM)

Name the reported IC50 value associated with the compound `COc1nc(N)c2c(n1)CCN(c1ccc(C(C)C)cc1F)C2=O`
19.8

Note, next up: `COc1nc(N)c2c(n1)CCN(c1ccc(S(=O)(=O)C(C)(C)C)cc1)C2=O`
784

Note, next up: `COc1nc(N)c2c(n1)CCN(c1ccc(C(C)(C)F)cc1)C2=O`
86.6

Note, next up: `COc1nc(N)c2c(n1)CCN(c1ccc([C@H]3CC[C@H](CC#N)CC3)cc1)C2=O`
32.5

Note, next up: `COc1nc(N)c2c(n1)CCN(c1ccc(C(=O)N(C)C)cc1)C2=O`
1370

Note, next up: `COc1nc(N)c2c(n1)CCN(c1ccc(C(C)(C)NC(C)=O)cc1)C2=O`
1570

Note, next up: `COc1nc(N)c2c(n1)CCN(c1ccc(C(C)(C)c3ncnn3C)cc1)C2=O`
795

Note, next up: `COc1nc(N)c2c(n1)CCN(c1ccc(C(C)(C)OC)cc1)C2=O`
34.6

Note, next up: `COc1nc(N)c2c(n1)CCN(c1ccc(C(C)(C)C)cc1)C2=O`
8.88

Note, next up: COc1nc(N)c2c(n1)CCN(c1ccc(C(C)(C)c3ncon3)cc1)C2=O (single isomer, unassigned)
77.8

I. COc1nc(N)c2c(n1)CCN(c1ccc([C@H]3C[C@@H](O)C3)cc1)C2=O
II. COc1nc(N)c2c(n1)CCN(c1ccc(C(C)C)c(F)c1)C2=O
III. COc1nc(N)c2c(n1)CCN(c1ccc([C@H]3C[C@H](O)C3)cc1)C2=O
IV. COc1nc(N)c2c(n1)CCN(c1cccc(C(C)C)c1)C2=O
Returns the items ordered by IC50, from maximum to minimum. Please list the labels according to the requested order.
IV, III, I, II
(IV: 873 nM, III: 95.8 nM, I: 59.8 nM, II: 9.66 nM)

1. COc1nc(N)c2c(n1)CCN(c1ccc(Cl)c(Cl)c1)C2=O
2. COc1nc(N)c2c(n1)CCN(c1ccc(OC(C)C)cc1)C2=O
// pick larger IC50 from pair: 1 vs 2 Answer by stating the label of the chosen item.
2
(2: 102 nM, 1: 68.9 nM)

a. COc1nc(N)c2c(n1)CCN(c1ccc(C(C)(C)c3nc(C)no3)cc1)C2=O
b. COc1nc(N)c2c(n1)CCN(c1ccc(C(C)(C)c3ncn[nH]3)cc1)C2=O
// pick larger IC50 from pair: a vs b Answer by stating the label of the chosen item.
b
(b: 78.5 nM, a: 51.5 nM)

###

molecular target: Human full-length diacylglycerol:acylCoA acyltransferase 1 (DGAT-1) (Homo sapiens); construct: Human full-length diacylglycerol:acylCoA acyltransferase 1 (DGAT-1) was expressed in Sf9 insect cells; made in house; host or cells: Sf9 insect cells (baculovirus); crude membrane/microsome fraction; experiment: DGAT-1 Reduced Microsome Multidose Assay, G7329E Human IC50; type: biochemical; conditions: crude membrane fraction of Sf9 cells expressing human DGAT-1; [14C]decanoylCoA; apparent IC50, average where tested more than once
QUANTITY NAME: IC50 (nM)

Record `Cc1nc(N)c2c(n1)CCN(c1ccc(I)cc1)C2=O` : what is its IC50 with Human full-length diacylglycerol:acylCoA acyltransferase 1 (DGAT-1) (Homo sapiens)?
13700

I. COc1nc(N)c2c(n1)CCN(c1ccc(I)cc1)C2=O
II. COc1nc(N)c2c(n1)CCN(c1ccc(C(C)C)cc1)C2=O
Select the item whose IC50 value is smaller, choosing between I and II . Answer by stating the label of the chosen item.
II
(II: 58.5 nM, I: 124 nM)

I. COc1nc(N)c2c(n1)CCN(c1ccc([C@H]3CC[C@H](CC#N)CC3)cc1)C2=O
II. COc1nc(N)c2c(n1)CCN(c1ccc(C(C)(C)C)cc1)C2=O
Select the item whose IC50 value is smaller, choosing between I and II . Answer by stating the label of the chosen item.
II

###

target: Human full-length diacylglycerol:acylCoA acyltransferase 1 (DGAT-1) (Homo sapiens); construct: Human full-length diacylglycerol:acylCoA acyltransferase 1 (DGAT-1) was expressed in Sf9 insect cells; made in house; host or cells: Sf9 insect cells (baculovirus); crude membrane/microsome fraction; assay: DGAT-1 Reduced Microsome Multidose Assay, G7329F Human IC50; type: biochemical; conditions: crude membrane fraction of Sf9 cells expressing human DGAT-1; [14C]decanoylCoA; apparent IC50, average where tested more than once
pIC50: −log10 of the molar value.
QUANTITY NAME: pIC50

P. COc1nc(N)c2c(n1)CCN(c1ccc(C(C)(C)C(F)(F)F)cc1)C2=O
Q. COc1nc(N)c2c(n1)CCN(c1ccc(C(C)(C)c3ncno3)cc1)C2=O (single isomer, unassigned)
R. COc1nc(N)c2c(n1)CCN(c1ccc3c(c1)N(C)C(=O)C3(C)C)C2=O
List the 3 entries from lowest pIC50 to highest pIC50 value. Please list the labels according to the requested order.
R, Q, P

###

target: Human full-length diacylglycerol:acylCoA acyltransferase 1 (DGAT-1) (Homo sapiens); construct: Human full-length diacylglycerol:acylCoA acyltransferase 1 (DGAT-1) was expressed in Sf9 insect cells; made in house; host or cells: Sf9 insect cells (baculovirus); crude membrane/microsome fraction; assay: DGAT-1 Reduced Microsome Multidose Assay, G7329F Human IC50; format: biochemical; conditions: crude membrane fraction of Sf9 cells expressing human DGAT-1; [14C]decanoylCoA; apparent IC50, average where tested more than once
pIC50: −log10 of the molar value.
QUANTITY NAME: pIC50

Name the reported pIC50 value associated with the compound `COC(=O)C(C)(C)c1ccc(N2CCc3nc(OC)nc(N)c3C2=O)cc1`
7.86

Note, next up: `COc1nc(N)c2c(n1)CCN(c1ccc3c(c1)CCC3)C2=O`
7.39

Note, next up: `COc1nc(N)c2c(n1)CCN(c1ccc(OC(F)(F)F)cc1)C2=O`
7.04

Note, next up: `COc1nc(N)c2c(n1)CCN(c1ccc(C(=O)OC3CCCCC3)cc1)C2=O`
7.13

Note, next up: `COc1nc(N)c2c(n1)CCN(c1ccc3c(c1)OCCO3)C2=O`
6.98

Note, next up: `COc1nc(N)c2c(n1)CCN(c1ccc(C3(CO)CCC3)cc1)C2=O`
7.44

Note, next up: `COc1nc(N)c2c(n1)CCN(c1ccc(C(C)(C)CO)cc1)C2=O`
7.28

Note, next up: `COc1nc(N)c2c(n1)CCN(c1ccc(SC(C)(C)C)cc1)C2=O`
7.62

Note, next up: COc1nc(N)c2c(n1)CCN(c1ccc(C(O)C(C)(C)C)cc1)C2=O (stereo not shown) [Example 10A]
7.23

Note, next up: `COc1nc(N)c2c(n1)CCN(c1ccc3nc[nH]c3c1)C2=O`
5.85

A. CCOc1nc(N)c2c(n1)CCN(c1ccc(C(C)(C)C)cc1)C2=O
B. COc1nc(N)c2c(n1)CCN(c1ccc(OCC(C)C)cc1)C2=O
// pick larger pIC50 from pair: A vs B Answer by stating the label of the chosen item.
B
(B: 7.08, A: 6.05)

1. COc1nc(N)c2c(n1)CCN(c1ccc(C(O)(C(F)(F)F)C(F)(F)F)cc1)C2=O
2. COc1nc(N)c2c(n1)CCN(c1ccc(Cl)cc1)C2=O
Select the item whose pIC50 value is smaller, choosing between 1 and 2 . Answer by stating the label of the chosen item.
2
(2: 6.13, 1: 8.28)
